# Tested on: DU145 cells
# test-name: WST-1 cell proliferation assay, DU145
# Format: cell-based, human
# measurement-setup: fold potency relative to silibinin
parameter: IC50 (Silibinin)/IC50(Derivative) DU145
API note: the answer field is a bare number with no unit suffix.

These solved cases illustrate the format of a correct answer.
[[record]]
molecule = "CCN(CC)CCCCCOc1c(-c2ccc3c(c2)OC(c2ccc(OC)c(OC)c2)C(CO)O3)oc2cc(OC)cc(OC)c2c1=O (stereo not drawn)"
measured_target = "DU145 cells"
readout_number = 14

[[record]]
molecule = "COc1cc(OC)c2c(=O)c(OCCCN3CCOCC3)c(-c3ccc4c(c3)OC(c3ccc(OC)c(OC)c3)C(CO)O4)oc2c1 (stereo not drawn)"
measured_target = "DU145 cells"
readout_number = 9

[[record]]
molecule = "COc1cc(OC)c2c(=O)c(OCCCCN3CCCCC3)c(-c3ccc4c(c3)OC(c3ccc(OC)c(OC)c3)C(CO)O4)oc2c1 (stereo not drawn)"
measured_target = "DU145 cells"
readout_number = 1

[[record]]
molecule = "COc1cc(OC)c2c(=O)c(OCCCCN3CCOCC3)c(-c3ccc4c(c3)OC(c3ccc(OC)c(OC)c3)C(CO)O4)oc2c1 (stereo not drawn)"
measured_target = "DU145 cells"
readout_number = 15

[[record]]
molecule = "COc1ccc(C2Oc3cc(-c4oc5cc(OCCCN6CCOCC6)cc(OC)c5c(=O)c4OC)ccc3OC2CO)cc1OC (stereo not drawn)"
measured_target = "DU145 cells"
readout_number = 2


// next item, IC50 (Silibinin)/IC50(Derivative) DU145 requested
query: Fill blank: measured IC50 (Silibinin)/IC50(Derivative) DU145 of the molecule CCCN(CCC)CCCOc1cc(OC)c2c(=O)c(OC)c(-c3ccc4c(c3)OC(c3ccc(OC)c(OC)c3)C(CO)O4)oc2c1 (stereo not drawn) is ____.
result: 51
